Recorded measurements of EC50, one per entry
# subjectOfTest: Transient receptor potential cation channel subfamily V member 1 (Rattus norvegicus)
# Sequence (O35433 whole entry): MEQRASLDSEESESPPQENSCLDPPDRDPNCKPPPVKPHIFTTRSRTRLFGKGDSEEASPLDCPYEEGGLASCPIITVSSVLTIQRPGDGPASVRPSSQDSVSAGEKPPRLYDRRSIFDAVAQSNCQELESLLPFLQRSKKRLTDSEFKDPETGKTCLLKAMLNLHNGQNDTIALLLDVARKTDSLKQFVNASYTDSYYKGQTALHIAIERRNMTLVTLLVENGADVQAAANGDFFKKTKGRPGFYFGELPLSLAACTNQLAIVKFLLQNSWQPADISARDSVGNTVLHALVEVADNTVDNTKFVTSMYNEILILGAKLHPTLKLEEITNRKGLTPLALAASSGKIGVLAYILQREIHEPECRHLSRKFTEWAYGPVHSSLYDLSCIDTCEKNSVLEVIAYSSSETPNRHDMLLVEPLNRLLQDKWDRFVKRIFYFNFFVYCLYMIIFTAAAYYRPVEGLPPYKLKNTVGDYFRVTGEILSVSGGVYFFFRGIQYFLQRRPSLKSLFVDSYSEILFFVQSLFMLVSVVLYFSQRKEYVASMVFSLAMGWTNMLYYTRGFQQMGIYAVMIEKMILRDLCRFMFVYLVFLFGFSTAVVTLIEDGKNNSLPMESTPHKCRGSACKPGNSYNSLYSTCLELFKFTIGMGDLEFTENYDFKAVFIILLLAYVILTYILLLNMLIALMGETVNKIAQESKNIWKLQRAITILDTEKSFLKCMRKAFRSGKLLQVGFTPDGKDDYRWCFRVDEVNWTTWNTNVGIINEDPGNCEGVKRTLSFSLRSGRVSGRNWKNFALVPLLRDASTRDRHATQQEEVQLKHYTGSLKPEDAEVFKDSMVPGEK
# testProtocol: Agonist activity by [Ca2+] uptake in CHO cells expressing rat TRPV1 at 10-30 uM; NE = Not effective
# Format: functional, cell-based
# assaySetup: read-out: EC50
measuredEndpoint: EC50 (µM)

- molecule: "C[S+]([O-])c1cccc(C/N=C(\\S)NCc2ccc(C(C)(C)C)cc2)c1 (configuration not stated)"
  result: 1.89
- molecule: "CC(C)(C)c1ccc(C/N=C(\\S)NCc2cccc(NS(C)(=O)=O)c2)cc1"
  result: 4.1

====

# subjectOfTest: Transient receptor potential cation channel subfamily V member 1 (Rattus norvegicus)
# testProtocol: Agonist activity by 300 nM capsaicin induced [Ca2+] uptake in CHO cells expressing rat TRPV1 at 10-30 uM; WE = Weakly effective
# Assay type: functional, cell-based
# assaySetup: read-out: EC50

- chemicalSmiles: "CC(C)(C)c1ccc(C/N=C(\\S)NCc2cccc(S(C)(=O)=O)c2)cc1"
  EC50 [nM]: 1010
